system: MCF7; experiment: Antiproliferative activity against human MCF7 cells transfected with MBR C3 vector assessed as reduction in cell viability after 24 hrs by MTT assay; assay type: functional, cell-based; conditions: MCF7, 24 h
readout_type: pEC50
Give bare numbers, as −log10 of the molar value.

substance_smiles: Oc1ccccc1-c1nc(-c2ccccc2)c2cc(Cl)ccc2n1
tested_target: MCF7
pEC50: 5.52

Now, please, on to the next molecule.
`Fc1cc(-c2nc(-c3ccccc3)c3cc(Cl)ccc3n2)ccc1Br` yielded pEC50 of 5.53

----------
What pEC50 was measured for each of the following?
test system: MCF7; experiment: Antiproliferative activity against human MCF7 cells assessed as reduction in cell viability after 24 hrs by MTT assay; assay type: functional, cell-based; settings: MCF7, 24 h
Numbers only, as −log10 of the molar value.

substance_smiles: Oc1ccccc1-c1nc(-c2ccccc2)c2cc(Cl)ccc2n1
readout_type: pEC50
recorded_measurement: 5.20

Per the reported MCF7 data, `Fc1cc(-c2nc(-c3ccccc3)c3cc(Cl)ccc3n2)ccc1Br` has pEC50 of 5.30

----------
test system: MCF7; experiment: Synergistic antiproliferative activity against cisplatin-resistant human MCF7-CR cells assessed as reduction in cell viability in presence of cisplatin after 24 hrs by MTT assay; type: functional, cell-based; conditions: MCF7, 24 h
What EC50 was measured for each of the following?
Numbers only, in µM.

Quick one: give me EC50 for each item below, same order please.
1. Oc1ccccc1-c1nc(-c2ccccc2)c2cc(Cl)ccc2n1
2. Fc1cc(-c2nc(-c3ccccc3)c3cc(Cl)ccc3n2)ccc1Br

# output
1. 9.12
2. 4.89

----------
test system: MCF7; test: Antiproliferative activity against cisplatin-resistant human MCF7-CR cells transfected with MBR C2 vector assessed as reduction in cell viability after 24 hrs by MTT assay; assay type: functional, cell-based; conditions: MCF7, 24 h
What EC50 was measured for each of the following?
Numbers only, in µM.

substance_smiles: Fc1cc(-c2nc(-c3ccccc3)c3cc(Cl)ccc3n2)ccc1Br
readout_type: EC50
measure_unit: µM
recorded_measurement: 5.04

`Oc1ccccc1-c1nc(-c2ccccc2)c2cc(Cl)ccc2n1` yielded EC50 of 5.73

----------
What pEC50 was measured for each of the following?
tested on: MCF7; assay: Synergistic antiproliferative activity against cisplatin-resistant human MCF7-CR cells assessed as reduction in cell viability in presence of taxol after 24 hrs by MTT assay; format: functional, cell-based; conditions: MCF7, 24 h
Numbers only, as −log10 of the molar value.

Quick one: give me pEC50 for each item below, same order please.
1. Fc1cc(-c2nc(-c3ccccc3)c3cc(Cl)ccc3n2)ccc1Br
2. Oc1ccccc1-c1nc(-c2ccccc2)c2cc(Cl)ccc2n1

# output
5.91
5.45
